Recorded AC50 values for a group of compounds are listed next.
- target-desc: Beta-2 adrenergic receptor (Homo sapiens, UniProt P07550); note: assay procedure not described here
- Sequence (P07550 whole entry): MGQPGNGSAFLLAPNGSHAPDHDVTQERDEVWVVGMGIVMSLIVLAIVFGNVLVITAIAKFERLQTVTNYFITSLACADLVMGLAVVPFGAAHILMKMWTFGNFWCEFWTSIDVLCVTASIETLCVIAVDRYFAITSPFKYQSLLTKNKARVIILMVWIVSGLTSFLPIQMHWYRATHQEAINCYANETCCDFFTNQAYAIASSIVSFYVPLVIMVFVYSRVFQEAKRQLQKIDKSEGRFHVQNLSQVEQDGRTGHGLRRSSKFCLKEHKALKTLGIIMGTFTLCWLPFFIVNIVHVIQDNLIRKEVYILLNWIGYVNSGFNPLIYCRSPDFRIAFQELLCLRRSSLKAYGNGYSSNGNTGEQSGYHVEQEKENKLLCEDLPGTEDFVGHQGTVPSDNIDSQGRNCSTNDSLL

Some entries whose results are on file:
>  <compound>
CN(C)CCCN1c2ccccc2Sc2ccccc21

>  <AC50>
7.6 µM

$$$$
>  <compound>
CCOc1cc(N)c([N+](=O)[O-])cc1C(=O)NC1CCN(CC2CC=CCC2)CC1 (stereo not drawn) [CINITAPRIDE]

>  <AC50>
16 µM

$$$$
>  <compound>
CC(=O)O[C@@]12CO[C@@H]1C[C@H](O)[C@@]1(C)C(=O)[C@H](O)C3=C(C)[C@@H](OC(=O)[C@H](O)[C@@H](NC(=O)OC(C)(C)C)c4ccccc4)C[C@@](O)([C@@H](OC(=O)c4ccccc4)[C@H]21)C3(C)C [DOCETAXEL ANHYDROUS]

>  <AC50>
> 30 µM

$$$$
>  <compound>
CC(C)(Oc1ccc(C2CC2(Cl)Cl)cc1)C(=O)O (stereo not drawn) [CIPROFIBRATE]

>  <AC50>
> 30 µM

$$$$
>  <compound>
COC(=O)[C@@H]1CC2=CC(=O)CC[C@]2(C)[C@@]23O[C@@H]2C[C@@]2(C)[C@@H](CC[C@@]24CCC(=O)O4)[C@H]13

>  <AC50>
> 10 µM

$$$$
>  <compound>
CN1CCN(C(=O)OC2c3nccnc3C(=O)N2c2ccc(Cl)cn2)CC1 (stereo not drawn)

>  <AC50>
> 10 µM

$$$$
>  <compound>
CC(C)NCC1CCc2cc(CO)c([N+](=O)[O-])cc2N1 (stereo not drawn)

>  <AC50>
> 10 µM

$$$$
>  <compound>
NC[C@H]1CC[C@H](C(=O)O)CC1

>  <AC50>
> 10 µM

$$$$
>  <compound>
CC(C)c1c(C(=O)Nc2ccccc2)c(-c2ccccc2)c(-c2ccc(F)cc2)n1CC[C@@H](O)C[C@@H](O)CC(=O)O

>  <AC50>
> 10 µM

$$$$
>  <compound>
NC(N)=Nc1nc(CSCCC(N)=NS(N)(=O)=O)cs1

>  <AC50>
> 10 µM

$$$$

Return value of AC50 for input "Cc1c(O)c(=O)ccn1C" , no commentary. > 30 µM

Return value of AC50 for input "CCCCCCCCCCCC[N+](C)(C)CCOc1ccccc1" , no commentary. 15 µM

Return value of AC50 for input "CN1CC(=O)N2[C@H](c3ccc4c(c3)OCO4)c3[nH]c4ccccc4c3C[C@@H]2C1=O" , no commentary. > 10 µM

Return value of AC50 for input NC1=NC(=O)C(c2ccccc2)O1 (stereo not drawn) , no commentary. > 10 µM

* * *

// endpoint AC50 / system Delta-type opioid receptor (Homo sapiens, UniProt P41143); note: assay procedure not described here

>  <molecule>
C1=Cc2cccc(OCC3CNCCO3)c2C1 (stereo not drawn)

>  <endpoint-result>
22 µM

$$$$

Return value of AC50 for input "CN(C)CCCN1c2ccccc2Sc2ccccc21" , no commentary. > 10 µM

Return value of AC50 for input "Cc1nc2ccc(CN(C)c3ccc(C(=O)N[C@@H](CCC(=O)O)C(=O)O)s3)cc2c(=O)[nH]1" , no commentary. > 30 µM

* * *

- target-desc: 3',5'-cyclic-AMP phosphodiesterase 4D (Homo sapiens); note: assay procedure not described here
- Sequence (Q08499 whole entry): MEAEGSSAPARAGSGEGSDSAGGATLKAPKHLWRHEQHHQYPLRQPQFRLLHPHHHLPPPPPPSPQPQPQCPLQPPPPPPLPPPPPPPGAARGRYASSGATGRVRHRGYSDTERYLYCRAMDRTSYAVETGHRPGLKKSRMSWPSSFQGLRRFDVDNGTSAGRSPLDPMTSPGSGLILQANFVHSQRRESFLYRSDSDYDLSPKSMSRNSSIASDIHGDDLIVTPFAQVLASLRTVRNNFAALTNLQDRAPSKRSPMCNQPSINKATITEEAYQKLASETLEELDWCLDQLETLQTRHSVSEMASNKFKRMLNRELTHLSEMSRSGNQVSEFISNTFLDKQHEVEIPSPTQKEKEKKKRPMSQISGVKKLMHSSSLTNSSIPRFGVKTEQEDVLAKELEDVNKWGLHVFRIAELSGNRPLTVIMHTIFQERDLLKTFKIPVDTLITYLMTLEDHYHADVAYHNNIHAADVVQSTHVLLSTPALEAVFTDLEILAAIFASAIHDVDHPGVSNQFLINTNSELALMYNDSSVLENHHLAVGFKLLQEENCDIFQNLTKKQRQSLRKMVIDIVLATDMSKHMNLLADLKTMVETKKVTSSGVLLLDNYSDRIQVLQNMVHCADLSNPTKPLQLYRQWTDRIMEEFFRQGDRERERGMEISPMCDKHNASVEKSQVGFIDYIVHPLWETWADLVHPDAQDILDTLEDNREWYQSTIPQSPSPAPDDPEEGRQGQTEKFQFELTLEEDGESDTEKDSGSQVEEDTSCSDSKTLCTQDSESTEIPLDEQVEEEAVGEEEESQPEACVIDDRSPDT
- Assay type: functional
endpoint: AC50

Some entries whose results are on file:
>  <compound>
CCC[C@@H]1C[C@@H](C(=O)N[C@@H]([C@H]2O[C@H](SC)[C@H](O)[C@@H](O)[C@H]2O)[C@H](C)Cl)N(C)C1

>  <AC50>
> 30 µM

$$$$
>  <compound>
CC(=O)OCC(=O)[C@@]12OC3(CCCC3)O[C@@H]1C[C@H]1[C@@H]3CCC4=CC(=O)C=C[C@]4(C)[C@@]3(F)[C@@H](O)C[C@@]12C [AMCINONIDE]

>  <AC50>
> 30 µM

$$$$
>  <compound>
CS(=O)(=O)c1ccc([C@@H](O)[C@@H](CO)NC(=O)C(Cl)Cl)cc1

>  <AC50>
> 30 µM

$$$$
>  <compound>
Nc1nc(N)c2nc(-c3ccccc3)c(N)nc2n1

>  <AC50>
24 µM

$$$$
>  <compound>
O=C(Cn1ccnc1[N+](=O)[O-])NCc1ccccc1

>  <AC50>
> 30 µM

$$$$
>  <compound>
CCCS(=O)(=O)Nc1ccc(F)c(C(=O)c2c[nH]c3ncc(-c4ccc(Cl)cc4)cc23)c1F

>  <AC50>
> 30 µM

$$$$
>  <compound>
C[N+](C)(C)CCOC(N)=O

>  <AC50>
> 30 µM

$$$$
>  <compound>
C[C@H]1O[C@H](O[C@H]2[C@H](O)[C@@H](O)[C@@H](O[C@H]3[C@H](O)[C@@H](O)C(O)O[C@@H]3CO)O[C@@H]2CO)[C@H](O)[C@@H](O)[C@@H]1N[C@H]1C=C(CO)[C@@H](O)[C@H](O)[C@H]1O (stereo not given in full)

>  <AC50>
> 30 µM

$$$$

Return value of AC50 for input "CN1CCc2cccc3c2[C@H]1Cc1ccc(O)c(O)c1-3" , no commentary. 2.2 µM

Return value of AC50 for input O=C(CCCCC(=O)Nc1c(I)cc(I)c(C(=O)O)c1I)Nc1c(I)cc(I)c(C(=O)O)c1I [IODIPAMIDE] , no commentary. > 30 µM

Return value of AC50 for input "COc1cc(Nc2c(C#N)cnc3cc(OCCCN4CCN(C)CC4)c(OC)cc23)c(Cl)cc1Cl" , no commentary. > 30 µM

Return value of AC50 for input "O=C(NC[C@H]1CN(c2ccc(N3CCOCC3=O)cc2)C(=O)O1)c1ccc(Cl)s1" , no commentary. > 30 µM

Return value of AC50 for input "CC(C)(N)Cc1ccc(Cl)cc1" , no commentary. > 30 µM

Return value of AC50 for input "CCCCCCCCCCCC[N+](C)(C)CCOc1ccccc1" , no commentary. 12 µM

Return value of AC50 for input "CC(C)Cc1ccc(CC(=O)O)cc1" , no commentary. > 30 µM

Return value of AC50 for input "CC(C)c1c(C(=O)Nc2ccccc2)c(-c2ccccc2)c(-c2ccc(F)cc2)n1CC[C@@H](O)C[C@@H](O)CC(=O)O" , no commentary. > 30 µM

Return value of AC50 for input "NC[C@H]1CC[C@H](C(=O)O)CC1" , no commentary. > 30 µM

Return value of AC50 for input "O=C(CCCCCCC(=O)Nc1ccccc1)NO" , no commentary. > 30 µM

Return value of AC50 for input CC(=O)N(CC(O)CO)c1c(I)c(C(=O)NCC(O)CO)c(I)c(C(=O)NCC(O)CO)c1I (stereo not given) [IOHEXOL] , no commentary. > 30 µM

Return value of AC50 for input CCCCC(C)(O)C/C=C/[C@H]1[C@H](O)CC(=O)[C@@H]1CCCCCCC(=O)OC (stereo not given in full) , no commentary. > 30 µM

Return value of AC50 for input CN1CCCN=C1COC(=O)C(O)(c1ccccc1)C1CCCCC1 (stereo not given) , no commentary. > 30 µM

Return value of AC50 for input "O=P(O)(O)C(O)(Cc1cccnc1)P(=O)(O)O" , no commentary. > 30 µM

Where these numbers come from: ChEMBL document CHEMBL5291721
